Listed here: items and their measured TGI.
Tested on: MDA-MB-231 breast
Test: NCI tumour cell line growth inhibition, 48 h
property name: TGI (µM)

{"compound": "c1ccc2c(c1)SC1=Nc3sc4ccccc4[n+]3CN12", "result qualifier": "=", "measurement": 49.2}
{"compound": "CC(C)[Si]1(C(C)C)OCC2OC(N3C(=O)NC(=O)C[C@@H]3C(O)c3ccccc3)CC2O[Si](C(C)C)(C(C)C)O1 (some centres not stated)", "result qualifier": "=", "measurement": 12.1}
{"compound": "COC(=O)C1=C(O)[C@H](C(=O)OC)C2(O)[C@@H](C(=O)OC)[C@H]1C[C@@H](c1ccc(OC(=O)n3ccnc3)cc1)[C@@H]2C(=O)OC", "result qualifier": "=", "measurement": 48.6}
{"compound": "COC(=O)CC1C(C)(C)C(=O)C2CC3=C4CC(=O)OC(c5ccoc5)C4(C)CCC3C1(C)C2=O (configuration not stated)", "result qualifier": ">", "measurement": 100}
{"compound": "O=C1c2ccc(O)cc2OC(c2cc(O)c(O)c(O)c2)C1O (configuration not stated)", "result qualifier": "=", "measurement": 39.7}
{"compound": "NC(CSS(=O)(=O)c1ccccc1)C(=O)O (configuration not stated)", "result qualifier": ">", "measurement": 10}
{"compound": "CN1CCN(CC(=O)Nc2cccc3ccccc23)CC1", "result qualifier": ">", "measurement": 100}
{"compound": "COc1ccc2c(c1)c(=O)c1c(NCCN(C)C)ccc3c(=O)n(CCN(C)C)c(=O)n2c31", "result qualifier": "=", "measurement": 0.855}
{"compound": "NC1CSc2ccccc2NC1=O (configuration not stated)", "result qualifier": ">", "measurement": 100}
{"compound": "Nc1nc(N)c2cc(CNc3ccc(C(=O)NC(CC(=O)O)C(=O)O)cc3)ccc2n1 (configuration not stated)", "result qualifier": ">", "measurement": 100}
{"compound": "CC(=O)c1cc2c(c(O)c1C)C(=O)C(=O)c1c(O)cccc1-2", "result qualifier": "=", "measurement": 2.26}
{"compound": "CC1=NN(c2nc(N)nc(/C(C#N)=C\\C3COc4ccccc4C3=O)n2)C(C)(C)C1 (configuration not stated)", "result qualifier": ">", "measurement": 100}
{"compound": "Cc1ccc(S(=O)(=O)NC(=O)Nc2ccc(C(=O)O)c(O)c2)cc1", "result qualifier": ">", "measurement": 100}
{"compound": "Cc1ccc2nc(NC(=O)C(=O)C3C(=O)NC(=S)NC3=O)sc2c1", "result qualifier": ">", "measurement": 100}
{"compound": "Nc1nc2c(ncn2CC2CCC(CO)C2)c(=O)[nH]1 (configuration not stated)", "result qualifier": ">", "measurement": 100}
{"compound": "OC1CC2CCCN(CCc3c1[nH]c1ccccc31)C2 (configuration not stated)", "result qualifier": ">", "measurement": 100}
{"compound": "Cc1c2cnccc2c(C)c2c1c1cc(CO)ccc1n2C", "result qualifier": "=", "measurement": 1.79}
{"compound": "CC(=O)OCC1OC(n2c(-c3cccs3)c3c(c(C#N)c2=S)-c2ccccc2CC3)C(OC(C)=O)C(OC(C)=O)C1OC(C)=O (configuration not stated)", "result qualifier": "=", "measurement": 87.9}
{"compound": "Brc1ccc(N=NN2CCCC2)cc1", "result qualifier": ">", "measurement": 100}
{"compound": "CN([O-])c1nc(N(C)[O-])nc(N2CCOCC2)n1.CN([O-])c1nc(N(C)[OH2+])nc(N2CCOCC2)n1.[Fe+3]", "result qualifier": ">", "measurement": 100}
{"compound": "O=C(O)c1cc(-c2ccc3c(O)ccc(O)c3c2)ccc1O", "result qualifier": "=", "measurement": 39.6}
{"compound": "COc1ccc(/C=C2/N=C(N/N=C\\C(O)C(O)C(O)C(O)CO)NC2=O)cc1 (configuration not stated)", "result qualifier": ">", "measurement": 100}
{"compound": "O=c1[nH]nc(Cc2ccccc2)n1/N=C\\CC/C=N\\n1c(Cc2ccccc2)n[nH]c1=O", "result qualifier": ">", "measurement": 100}
{"compound": "C[N+](C)=C/C=C(\\Cl)c1ccc2ccccc2c1", "result qualifier": "=", "measurement": 28.8}
{"compound": "CCCCOC(=O)NC(Nc1ccc(S(N)(=O)=O)cc1)(C(F)(F)F)C(F)(F)F", "result qualifier": ">", "measurement": 100}
{"compound": "CC(C)(C)OC(=O)Nc1nnc(S(N)(=O)=O)s1", "result qualifier": ">", "measurement": 100}
{"compound": "CN(C)c1ccc(/C=C/c2ccc3ccccc3[n+]2C)cc1", "result qualifier": "=", "measurement": 12.6}
{"compound": "O=C1OCC2=C1C(c1cccc(Cl)c1)c1cc3c(cc1N2CCO)OCO3 (configuration not stated)", "result qualifier": "=", "measurement": 14.4}
{"compound": "Cc1ccc(C2c3c(n(C)c(=O)n(C)c3=O)OC(N(C)C)(N(C)C)C2(F)F)cc1 (configuration not stated)", "result qualifier": ">", "measurement": 100}
{"compound": "Nc1ccn(C2OC(CO)C3[O][Sn]([c]4ccccc4)([c]4ccccc4)[O]C32)c(=O)n1 (configuration not stated)", "result qualifier": "=", "measurement": 82.6}
{"compound": "CNC(=O)N(C1=NCC(C)S1)c1ccc(C)c(C)c1 (configuration not stated)", "result qualifier": ">", "measurement": 100}
{"compound": "Clc1ccc(/C=C2\\CCCC3C2=Nc2ccccc2NC3c2ccc(Cl)cc2)cc1 (configuration not stated)", "result qualifier": "=", "measurement": 41.7}
